Experiment: Induction of calcium oxalate dissolution assessed as increase in calcium concentration after 5 days by flame photometry relative to untreated control
Assay type: physicochemical
Details: 120 h
property-name: Activity (%)

Would you please look over these solved cases?
Query block: # input molecule: `O=C1c2ccc(O[C@@H]3O[C@H](CO)[C@H](O)[C@H](O)[C@H]3O)c(O)c2C(=O)c2c(O)ccc(O)c21` ; wanted: its Activity
Result block: 513

Query block: Record: O=C1c2ccc(O)c(O)c2C(=O)c2c(O)ccc(O)c21 [QUINALIZARIN]
Result block: 1324

Query block: Record: `O=C1c2ccccc2C(=O)c2c(O[C@@H]3O[C@H](CO)[C@@H](O)[C@H](O)[C@H]3O)ccc(O)c21`
Result block: 541

Query block: Record: `O=C1c2ccccc2C(=O)c2c1ccc(O[C@@H]1O[C@H](CO)[C@H](O)[C@H](O)[C@H]1O)c2O`
Result block: 432

Query block: Record: O=C1c2ccccc2C(=O)c2c(O)ccc(O)c21 [QUINIZARIN]
Result block: 205

I = O=C1c2ccccc2C(=O)c2c1ccc(O[C@@H]1O[C@H](CO)[C@@H](O)[C@H](O)[C@H]1O)c2O
II = O=C1c2ccccc2C(=O)c2c1ccc(O)c2O [ATHRAQUINONES A]
III = O=C1c2ccc(O[C@@H]3O[C@H](CO)[C@@H](O)[C@H](O)[C@H]3O)c(O)c2C(=O)c2c(O)ccc(O)c21
Query block: Sort (3 molecules) by Activity: min first. Give me the labels in the order the question wants.
Result block: II, I, III
(II: 246%, I: 595%, III: 1513%)

---

System: L929
Test: Cytotoxicity against mouse L929 cells at 500 ug/ml
Format: cell-based
property-name: Activity

Would you please look over these solved cases?
Query block: # input compound: `O=C1c2ccccc2C(=O)c2c1ccc(O[C@@H]1O[C@H](CO)[C@H](O)[C@H](O)[C@H]1O)c2O` ; wanted: its Activity
Result block: Non-toxic

Query block: Record: `O=C1c2ccccc2C(=O)c2c(O)ccc(O)c21`
Result block: Toxic

Query block: Record: `O=C1c2ccccc2C(=O)c2c(O[C@@H]3O[C@H](CO)[C@@H](O)[C@H](O)[C@H]3O)ccc(O)c21`
Result block: Non-toxic

Query block: Record: `O=C1c2ccccc2C(=O)c2c1ccc(O)c2O`
Result block: Toxic

# context switch: different compound, same Activity
Query block: # input compound: `O=C1c2ccccc2C(=O)c2c1ccc(O[C@@H]1O[C@H](CO)[C@@H](O)[C@H](O)[C@H]1O)c2O` ; wanted: its Activity
Result block: Non-toxic

---

Tested on: A549
Assay: Cytotoxicity against human A549 cells at 500 ug/ml
Assay type: cell-based
property-name: Activity

Would you please look over these solved cases?
Query block: # input compound: `O=C1c2ccccc2C(=O)c2c(O)ccc(O)c21` ; wanted: its Activity
Result block: Toxic

Query block: Record: `O=C1c2ccccc2C(=O)c2c(O[C@@H]3O[C@H](CO)[C@@H](O)[C@H](O)[C@H]3O)ccc(O)c21`
Result block: Non-toxic

Query block: Record: `O=C1c2ccccc2C(=O)c2c1ccc(O)c2O`
Result block: Toxic

Query block: Record: `O=C1c2ccccc2C(=O)c2c1ccc(O[C@@H]1O[C@H](CO)[C@H](O)[C@H](O)[C@H]1O)c2O`
Result block: Non-toxic

Continuing:
Query block: # input compound: `O=C1c2ccccc2C(=O)c2c1ccc(O[C@@H]1O[C@H](CO)[C@@H](O)[C@H](O)[C@H]1O)c2O` ; wanted: its Activity
Result block: Non-toxic
